experiment: Solubility of the hydrophobic drug in water without polymer
Reported Endpoint: solubility

Item COC1=CC(=O)C[C@@H](C)[C@]12Oc1c(Cl)c(OC)cc(OC)c1C2=O [griseofulvine] has what recorded solubility?
13 to 15 µg/mL
